compound: COC(=O)c1ccc(/C=C/c2cnc3ccccc3c2)cc1
melting point: 92 to 94 °C
--
compound: COc1nc(NC(=O)NS(=O)(=O)c2ccsc2C(=O)C2CC2)nc(OC)n1
melting point: 146 to 148 °C
--
compound: CC1(C)CCC(C)(C)c2cc(-c3cn(-c4ccc(C(=O)O)cc4)c(S)n3)ccc21
melting point: 170 to 172 °C
--
compound: Cc1ccc(C(O)C(=O)c2ccc(Br)cc2)cc1 (centres undefined)
melting point: 80 to 82 °C
--
compound: Cc1nc(-c2ccc(F)cc2Cl)nn1-c1ccccc1C(F)(F)F
melting point: 116 °C
--
compound: CC(=O)N1CCc2nc3cccc(N)c3c(C)c2CC1
melting point: 150 °C
--
compound: O=C(NC1CCN(CCc2ccc([N+](=O)[O-])cc2)CC1)c1ccccc1
melting point: 209 to 216 °C
--
compound: CCN1C(=O)C(C)(C)C(=O)N(C)c2cc(CN(CCn3ccc4sccc4c3=O)Cc3cccnc3COC)ccc21
melting point: 119 to 122 °C
--
compound: Cc1ncccc1Oc1ccc(NC(=O)N2CCc3c(n(C)c4ccccc34)CC2)cn1
melting point: 159 to 160 °C

====

melting point values for the molecules below.

molecule: N=C(Nc1ccccc1)Nc1ncccc1OCc1c(F)cccc1F
melting point: 136 to 137 °C
--
molecule: COc1ccc2c(c1)OC(CN)C2 (stereo unspecified)
melting point: > 220 °C
--
molecule: O=C1C=C(O)CC(c2cc(C3CCOC3)no2)C1 (stereo unspecified)
melting point: 142 to 144 °C
--
molecule: O=C(O)c1nn(-c2ccccc2)c2c1CCc1cc(Cl)ccc1-2
melting point: 282 °C
--
molecule: CCN(CC)CCNC(=O)c1cccc2c(=O)c(C)c(-c3cccc(C)c3)oc12
melting point: 79.5 to 86 °C
--
molecule: CON=C1[C@@H](c2cc(OC)c(OC)c(OC)c2)CC[C@@H]1c1cc(OC)c(OC)c(OC)c1 (relative stereo)
melting point: 61 to 63 °C

====

measuredAttribute: melting point

compound: O=C(c1cccc(-c2ccccc2)c1C(=O)C(Cl)(Cl)Cl)C(Cl)(Cl)Cl
measuredAttribute: melting point
observedResult: 137 to 152 °C
--
compound: Cc1cc(Cl)cc(NC(=O)Cc2ccc(O)cc2)c1
measuredAttribute: melting point
observedResult: 176 to 178 °C
--
compound: O=C(O)Cc1ccc(CCNS(=O)(=O)c2ccc3ccccc3c2)cc1
measuredAttribute: melting point
observedResult: 135 to 136 °C
--
compound: CCCCN=C(O)c1c(Sc2ccccc2)c(Sc2ccccc2)c(Sc2ccccc2)c(Sc2ccccc2)c1C(=O)O
measuredAttribute: melting point
observedResult: 159 to 160 °C
--
compound: CCCCc1cn(CCCC)c(=O)n1Cc1ccc(-c2cccnc2-c2nnn[nH]2)cc1
measuredAttribute: melting point
observedResult: 178 to 180 °C
--
compound: O=C(NCCN1CCOCC1)c1ccc(-c2ccc3nnn(Cc4ccc5ncccc5c4)c3n2)cc1
measuredAttribute: melting point
observedResult: 146 to 149 °C
--
compound: Cc1cc(SCc2ccc(OCc3ccccc3)cc2)ccc1OCC(=O)O
measuredAttribute: melting point
observedResult: 120 to 121 °C
--
compound: CCCCc1nc(=O)c2cc(Br)c(F)cc2[nH]1
measuredAttribute: melting point
observedResult: 225 °C
--
compound: CNC(=O)c1cccc2cccc(NC(=O)c3cccs3)c12
measuredAttribute: melting point
observedResult: 210 °C
--
compound: O=S(=O)(Nc1onc2c1CCCC2)c1ccccc1
measuredAttribute: melting point
observedResult: 155 to 157 °C
--
compound: CCOC(=O)COc1ccc(CSCC(=O)OCC)cc1NC(=O)c1ccc(OCCCCc2ccccc2)cc1
measuredAttribute: melting point
observedResult: 56 to 57 °C
--
compound: NC(=O)N1CCC(C2c3ncc(Br)cc3CCc3cc(Cl)cc(Cl)c32)CC1 (single isomer, unassigned; (+))
measuredAttribute: melting point
observedResult: 102 to 103 °C
--
compound: CCOC(=O)C1(S(=O)(=O)c2ccc(OC)cc2)CCN(Cc2ccc(-c3ccccc3)cc2)CC1
measuredAttribute: melting point
observedResult: 176 to 178 °C
--
compound: O=C(c1ccc(Cl)cc1)C1CCN(S(=O)(=O)N2CCCC[C@@H]2C(=O)NO)CC1
measuredAttribute: melting point
observedResult: 84.4 to 86.4 °C
--
compound: CCOc1cc2c(cc1OC(C)=O)OCS2
measuredAttribute: melting point
observedResult: 131 °C
--
compound: Cc1cc(C)n(-c2nc(Nc3cc(C(F)(F)F)cc(C(F)(F)F)c3)c3ccccc3n2)n1
measuredAttribute: melting point
observedResult: 169 to 172 °C
--
compound: c1ccc(CN2CCC(CCc3noc4cc(N5CCOCC5)ccc34)CC2)cc1
measuredAttribute: melting point
observedResult: 129 to 130 °C
--
compound: Cc1cc(C#CC(C)(C)O)cc(C)c1Oc1ccc([N+](=O)[O-])c(Nc2ccc(C#N)cc2)n1
measuredAttribute: melting point
observedResult: 114 to 116 °C
--
compound: NCCCc1ccc2c(n1)NCCC2
measuredAttribute: melting point
observedResult: 66 to 68.5 °C
--
compound: COC(=O)C[C@H](O)C[C@H](O)CCc1c(-c2ccc(F)cc2)c(-c2ccccc2)c(C(=O)NCc2ccccc2)n1C(C)C
measuredAttribute: melting point
observedResult: 52 to 55 °C
--
compound: CC(C)CCSc1cc(C(=O)O)cc([N+](=O)[O-])c1-c1ccccc1
measuredAttribute: melting point
observedResult: 143 to 144 °C
--
compound: O=C1CCC(c2ccc(-c3ccc([N+](=O)[O-])cc3F)cc2)O1 (stereo not drawn)
measuredAttribute: melting point
observedResult: 94 °C
--
compound: CC(C)(O)CON1C(C)(C)CC(OC(=O)c2ccc3nn(-c4cc(C(C)(C)C)cc(C(C)(C)c5ccc(Cl)cc5)c4O)nc3c2)CC1(C)C
measuredAttribute: melting point
observedResult: 80 to 90 °C
--
compound: O=C(NS(=O)(=O)C=Cc1ccccc1)N1CCC(CCCc2ccccc2)CC1
measuredAttribute: melting point
observedResult: 125 to 127 °C
--
compound: ClC1=Nc2cc(Cl)ccc2Oc2cscc21
measuredAttribute: melting point
observedResult: 180 to 182 °C
--
compound: Cc1c(C)c2c(c(C)c1N)CC(C)(CN1CCN(c3ccccc3)CC1)O2 (stereo not drawn)
measuredAttribute: melting point
observedResult: 94 to 95 °C
--
compound: CC(=O)N[C@H](COCc1cc(C)cc(C)c1)Cc1ccccc1
measuredAttribute: melting point
observedResult: 76 to 78 °C
--
compound: COc1ccc2c(c1)sc1nc(Nc3ccccc3)nc(=N)n12
measuredAttribute: melting point
observedResult: 225 to 226 °C
--
compound: Cc1cccc(C2(c3cccc(C)c3)CCC(=O)[C@H]3CN(C(=O)Cc4ccccc4)C[C@H]32)c1 (racemic)
measuredAttribute: melting point
observedResult: 207 °C
--
compound: Fc1cccc(Cl)c1-c1nn(-c2ccccc2Cl)c(=S)o1
measuredAttribute: melting point
observedResult: 112 to 114 °C
--
compound: CC(=O)OCc1ccc(-c2nc(=O)c3ccccc3s2)cn1
measuredAttribute: melting point
observedResult: 171 to 172 °C
--
compound: O=C(NCCCC1CCC2=C1CC=CC2)C(F)(F)F (stereo not drawn)
measuredAttribute: melting point
observedResult: 61 to 62 °C
--
compound: CCOC(=O)C1CC(=O)c2nc(C)n(C)c2C1 (stereo not drawn)
measuredAttribute: melting point
observedResult: 148 to 150 °C
--
compound: CCOC(=O)C[C@@H]1C(=O)N(S(=O)(=O)c2ccc(OC)cc2)C=C[C@@H]1c1ccc(OC)cc1
measuredAttribute: melting point
observedResult: 107 to 110 °C
--
compound: c1cc(CN2CCCCC2)ccc1CN1CCCCC1
measuredAttribute: melting point
observedResult: 86 to 88 °C
--
compound: Cn1cc(-c2cc3nccnc3[nH]2)c2cc(C(=O)NC(C)(C)CO)ccc21
measuredAttribute: melting point
observedResult: 210 to 214 °C
--
compound: CSC(Oc1cc2cc(Br)cnc2cc1C)C(=O)NC(C)(C)C (stereo not drawn)
measuredAttribute: melting point
observedResult: 132 to 134 °C
--
compound: O=C(c1ccccc1O)N1CCc2cc(S(=O)(=O)N3CC(c4ccccc4)NC3=O)ccc21 (stereo not drawn)
measuredAttribute: melting point
observedResult: 221 °C

====

melting point values for the compounds below.
measuredAttribute: melting point

compound: CCCc1nc2c(N)nc3cc(Oc4ccccc4[N+](=O)[O-])ccc3c2n1CC(C)C
observedResult: 207 to 208 °C
--
compound: O=C(CCCCC(=O)Oc1cc(O)cc(O)c1)Oc1cc(O)cc(O)c1
observedResult: 251 to 255 °C
--
compound: Cc1nc(-c2cc3cccc(OC[C@@H](O)CN4CCC(c5ccc6ccccc6c5)CC4)c3o2)no1
observedResult: 169 to 170 °C
--
compound: CC(=O)OC1COC(N)C(OC(C)=O)C1OC(C)=O (configuration not stated)
observedResult: 148 to 149 °C
--
compound: COC(=O)C(C)[C@H]1CC[C@H]2[C@@H]3CCC4=CC(=O)CC[C@]4(C)[C@H]3CC[C@]12C (some centres not stated)
observedResult: 175 to 177 °C
--
compound: O=C(NNc1ccccc1)c1ccc(F)cc1F
observedResult: 171 to 173 °C
--
compound: Cc1cc(C)c(C(O)c2cc(-n3ccnc3)ccc2C)c(C)c1 (configuration not stated)
observedResult: 190 to 191 °C
--
compound: CC(=O)c1c(-c2ccncc2)sc(Cl)c1C
observedResult: 60 to 61 °C
--
compound: CN1C(=O)C(NC(=O)Nc2ccc(Br)cc2)N=C(c2ccccc2)c2ccccc21 (configuration not stated)
observedResult: 286 to 287 °C
--
compound: C=CCc1c(O)cc(Cl)c2c(-c3ccccc3F)noc12
observedResult: 211 to 212 °C
--
compound: Brc1ccc2nc(NC3=NCCN3)[nH]c2c1
observedResult: 264 to 266 °C
--
compound: Cc1ccc(-c2ccccc2C(=O)Nc2ccc(C(=O)N3C[C@H]4CCCN4c4ccccc43)cc2)cc1
observedResult: 228 to 230 °C
--
compound: Cc1c(OCc2ccccc2)c(=O)ccn1CCCCCC(=O)O
observedResult: 145 to 147 °C
--
compound: N#CC(CBr)c1ccccc1 (configuration not stated)
observedResult: 63 °C
--
compound: CCCCCCC(C(=O)O)n1nnc(NC(=O)c2ccccc2C(=O)O)n1 (configuration not stated)
observedResult: 140 to 142 °C
--
compound: O=C1COc2cc(F)c([N+](=O)[O-])cc2N1
observedResult: 200 to 202 °C
--
compound: N#Cc1ccc(N2c3cc(Cl)ccc3C(=O)OC23CCNCC3)cc1
observedResult: 183 to 185 °C
--
compound: CC12CCCC1C1CCc3cc(F)ccc3C1CC2 (configuration not stated)
observedResult: 178 °C
--
compound: CN(C)C=C(C=C(C#N)C(=O)OC(C)(C)C)c1cccnc1
observedResult: 161 to 163 °C
--
compound: CC1(C)CC(O)CC(C)(C)N1N=Nc1ccccc1Br
observedResult: 81 °C
--
compound: CCn1cc(C(=O)O)c(=O)c2c(F)c(F)c(N3CCCC3)c(F)c21
observedResult: > 320 °C
--
compound: CCc1cc2c(cc1O)C(C)(C)CCC2(C)C
observedResult: 88 to 89 °C
